- Tested system: human TLR8 (Homo sapiens)
- Sequence (Q9NR97 27-1041): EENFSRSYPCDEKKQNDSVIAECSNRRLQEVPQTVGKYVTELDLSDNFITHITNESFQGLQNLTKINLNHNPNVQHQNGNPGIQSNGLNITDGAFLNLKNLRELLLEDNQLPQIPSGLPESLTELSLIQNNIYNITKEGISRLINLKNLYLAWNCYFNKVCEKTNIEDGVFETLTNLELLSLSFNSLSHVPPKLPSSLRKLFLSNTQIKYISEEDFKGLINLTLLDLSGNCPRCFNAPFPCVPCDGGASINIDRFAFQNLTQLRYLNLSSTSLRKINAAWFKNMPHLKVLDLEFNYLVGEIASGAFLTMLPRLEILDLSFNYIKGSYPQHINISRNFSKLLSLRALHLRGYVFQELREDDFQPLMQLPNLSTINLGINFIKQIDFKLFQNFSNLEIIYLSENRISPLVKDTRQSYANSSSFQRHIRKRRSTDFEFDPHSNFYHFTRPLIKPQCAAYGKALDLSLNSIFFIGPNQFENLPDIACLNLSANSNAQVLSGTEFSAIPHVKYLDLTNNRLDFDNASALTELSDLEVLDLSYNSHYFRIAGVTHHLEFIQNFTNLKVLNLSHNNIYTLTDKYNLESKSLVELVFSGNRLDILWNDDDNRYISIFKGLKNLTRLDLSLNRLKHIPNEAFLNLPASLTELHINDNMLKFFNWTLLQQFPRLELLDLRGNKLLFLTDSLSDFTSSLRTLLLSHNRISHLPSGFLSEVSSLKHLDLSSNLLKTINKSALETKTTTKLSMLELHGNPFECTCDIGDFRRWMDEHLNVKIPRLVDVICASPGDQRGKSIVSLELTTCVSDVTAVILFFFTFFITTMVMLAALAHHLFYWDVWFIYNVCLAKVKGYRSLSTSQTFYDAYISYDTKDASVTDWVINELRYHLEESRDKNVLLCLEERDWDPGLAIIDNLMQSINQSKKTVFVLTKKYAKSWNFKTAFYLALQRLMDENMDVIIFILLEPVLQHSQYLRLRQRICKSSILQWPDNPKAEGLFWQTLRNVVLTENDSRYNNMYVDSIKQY
- Procedure summary: HEK293-Blue-hTLR-8 cells assay
- Measurement parameters: HEK293-Blue-hTLR8 cells, R848 stimulation, 20 hrs, SEAP reporter; read-out: HEK/hTLR8 IC50
Test readout: log10 of IC50 (log10 of the value in µM)
Annotation: log10 of IC50, µM basis.

Exercise: // log10 of IC50 lookup, key: CO[C@H]1CN(c2ccc([C@@H]3CCN4[C@@H](C3)CN(c3ccc(C#N)c5ncccc35)C[C@H]4C)cn2)C[C@@H]1N
Solution: -1.33

Exercise: // log10 of IC50 lookup, key: CO[C@@H]1CN(c2ccc([C@@H]3CCN4[C@@H](C3)CN(c3ccc(C#N)c5ncccc35)C[C@H]4C)cn2)C[C@H]1N
Solution: -1.32

Exercise: // log10 of IC50 lookup, key: CO[C@H]1CN(c2ccc(O[C@H]3CCN4[C@@H](C3)CN(c3ccc(C#N)c5ncccc35)C[C@H]4C)cn2)C[C@H]1N
Solution: -2.15

Exercise: // log10 of IC50 lookup, key: C[C@@H]1CN(c2ccc(C#N)c3ncccc23)C[C@@H]2C[C@H](c3ccc(N4CCOC[C@@H](N)C4)nc3)CCN21
Solution: -1.10

Exercise: // log10 of IC50 lookup, key: C[C@@H]1CN(c2ccc(C#N)c3ncccc23)C[C@@H]2C[C@H](c3ccc(N4C[C@@H](N)[C@@H](F)C4)nc3)CCN21
Solution: -1.20

Exercise: // log10 of IC50 lookup, key: C[C@@H]1CN(c2ccc(C#N)c3ncccc23)C[C@@H]2C[C@H](c3ccc(N4CC(N)C4)nc3)CCN21
Solution: -0.90
